Experiment: Quantitative highthroughput screen to assess conditional lethalithy of P12 Ichikawa cells grown in Human Plasma-Like Medium with dialyzed fetal bovine serum (HPLM+ds) (AID 1963879); note: nearly all actives have a fitted effect of over 35% in size
Conditions: ATP luminescence, 48 h; viability; series mostly up to 45.8 µM
Results filed as inconclusive are left out. Calls of active or inactive are those of the source. Calls come from the whole dose curve; as a rule, active = well fitted cell-killing curve with a large enough effect; inconclusive = small, poorly fitted or top-dose-only effect; inactive = flat fitted curve, though single readings scatter.
Respond with a class label; see yes (1) (active), no (0) (inactive)

Prompt line: Returns: the outcome recorded for `CN1C(C(=O)Nc2ccccn2)=C(O)c2sc(Cl)cc2S1(=O)=O` in this assay.
Response line: no (0)

Prompt line: Hi, sorry to bother you, what did the test record for `NC(=O)c1cccnc1` ?
Response line: no (0)

Prompt line: What call does the record list for `COc1ccc(Nc2nccc(NCCO)n2)cc1` ?
Response line: no (0)

Prompt line: So what was the verdict on `OC(Cn1cncn1)(Cn1cncn1)c1ccc(F)cc1F` in this test?
Response line: no (0)

Prompt line: Record request — test call for `Cn1cnc(-c2cc3nccc(Oc4ccc(NC(=S)NC(=O)Cc5ccccc5)cc4F)c3s2)c1`
Response line: yes (1)

Prompt line: In this assay, the call recorded for `CC(=O)OCC(=O)[C@@]12N=C(C)O[C@H]1C[C@H]1[C@@H]3CCC4=CC(=O)C=C[C@]4(C)[C@@H]3[C@@H](O)C[C@@]12C` was what?
Response line: yes (1)

Prompt line: Hey, what did the test say about `O=C(C[C@@H]1CC=CCCC(=O)O[C@H](c2ccccc2)CNC1=O)NCc1ccc(Cl)cc1` ?
Response line: no (0)

Prompt line: Given `Nc1ccc(S(N)(=O)=O)cc1` , state the outcome it received in this test.
Response line: no (0)

* * *

Assay: Quantitative highthroughput screen to assess conditional lethalithy of NOMO1 cells grown in RPMI1640 with dialyzed fetal bovine serum (RPMI+ds) (AID 1963877); note: nearly all actives have a fitted effect of over 30% in size;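 for viability: 100% = DMSO control wells and 0% = empty wells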
Settings: NOMO1 in RPMI+dialyzed FBS viability, ATP luminescence, 48 h; series mostly up to 45.8 µM
Results filed as inconclusive are left out. Calls of active or inactive are those of the source. Calls follow the shape of the dose curve; as a rule, active = well fitted cell-killing curve with a large enough effect; inconclusive = small, poorly fitted or top-dose-only effect; inactive = flat fitted curve, though single readings scatter.
Give your call using only these classes: active, inactive

Use the examples below as a reference point.
CN(C)c1nc(N(C)C)nc(N(C)C)n1 : inactive
N#CC(=C1Nc2ccccc2S1)c1ccnc(OCc2ccc(CN3CCOCC3)cc2)n1 : active
CCOC(=O)N1c2ccc(C(F)(F)F)cc2[C@@H](N(Cc2cc(C(F)(F)F)cc(C(F)(F)F)c2)C(=O)OC)C[C@H]1CC : inactive

Prompt line: Which outcome was assigned to C[C@](Cc1c[nH]c2ccccc12)(NC(=O)OC1C2CC3CC(C2)CC1C3)C(=O)NC[C@H](NC(=O)CCC(=O)O)c1ccccc1 (some centres undefined) in this test?
Response line: inactive

Prompt line: Test call, this compound: `CCCCNc1cc(C(=O)O)cc(S(N)(=O)=O)c1Oc1ccccc1`
Response line: inactive

Prompt line: Could you please tell me the result logged for `NC(=O)c1cccc(N)c1` in this assay?
Response line: inactive

Prompt line: Dear all, I need the recorded test outcome for COc1ccccc1OCC(O)COC(N)=O (centres undefined) , thank you.
Response line: inactive

Prompt line: Tell me the recorded outcome of this test for `Cc1ccc(-c2ncn(-c3ccc(Nc4nccc(-c5cccc(N6CCOCC6)c5)n4)cc3)n2)cn1` .
Response line: active

Prompt line: Just curious, what result did COc1cc(C)c(Sc2cnc(NC(=O)c3ccc(CNC(C)C(C)C)cc3)s2)cc1C(=O)N1CCN(C(C)=O)CC1 (centres undefined) get here?
Response line: inactive

* * *

Assay: Viability qHTS for spleen associated tyrosine kinase inhibitor (SYKi) drug resistant MV4-11 cells (AID 1963824); note: nearly all actives have a fitted effect of over 35% in size; note: potency is the fitted concentration of half-maximal effect
Conditions: SYKi-resistant MV4-11 viability, CellTiter-Glo, 72 h; series mostly up to 45 µM
Inconclusive results are not listed. The source made the active and inactive calls. Calls follow the shape of the dose curve; as a rule, active = well fitted cell-killing curve with a large enough effect; inconclusive = small, poorly fitted or top-dose-only effect, or effect the other way; inactive = no such curve, though single readings can be large or run the other way.
READOUT: Potency

Worked cases, Potency given:
C=C1C(=O)O[C@@H]2C3C(=C(C)[C@@H](O)[C@@H](OC(=O)/C(=C/C)COC(C)=O)[C@@H]12)C(=O)[C@H]1O[C@@]31C (stereo partly drawn) : 3.55 µM (active)
C[C@H](NC(=O)C(C)(C)Oc1ccc(C(F)(F)F)cn1)[C@@H](Cc1ccc(Cl)cc1)c1cccc(C#N)c1 : 9.2 µM (active)
CCCCc1nc(Cl)c(CO)n1Cc1ccc(-c2ccccc2-c2nnn[nH]2)cc1 : inactive
CS(=O)(=O)c1ccc([C@@H](CC2CCCC2)C(=O)Nc2cnccn2)cc1Cl : 25.1 µM (active)
O=c1cc(-c2ccc(O)c(O)c2)oc2cc(O)cc(O)c12 : 7.42 µM (active)
NS(=O)(=O)Nc1ncnc(OCCOc2ncc(Br)cn2)c1-c1ccc(Br)cc1 : 14.6 µM (active)
C[C@]1(OC(=O)/C=C\c2ccc(O)cc2)C[C@@H](O)[C@]2(O)C=CO[C@@H](O[C@@H]3O[C@H](CO)[C@@H](O)[C@H](O)[C@H]3O)C12 (stereo partly drawn) : inactive

Field: next compound
Prompt line: Determine from records and report Potency for CCCCNc1ncc(-c2ccc(CN3CCOCC3)cn2)c(NC2CCC(O)CC2)n1 (stereo not drawn)
Response line: 0.091 µM (active)

* * *

Assay: Viability qHTS for spleen associated tyrosine kinase inhibitor (SYKi) drug resistant MV4-11 cells (AID 1963824); note: nearly all actives have a fitted effect of over 35% in size
Settings: SYKi-resistant MV4-11 viability, CellTiter-Glo, 72 h; series mostly up to 45 µM
Results filed as inconclusive are left out. The source made the active and inactive calls. The call rests on the fitted dose curve; in most records, active means well fitted cell-killing curve with a large enough effect; inconclusive means small, poorly fitted or top-dose-only effect, or effect the other way; inactive means no such curve, though single readings can be large or run the other way.
The categories you may choose from are Y (active), N (inactive)

Past entries and their recorded results:
CCCC1OC2C[C@@H]3[C@H]4CCC5=CC(=O)C=C[C@]5(C)[C@H]4C(O)C[C@]3(C)[C@]2(C(=O)CO)O1 (stereo not given in full) : Y
COc1ccc(-c2ccc3c(N4CCOCC4C)nc(N4CCOCC4C)nc3n2)cc1CO (stereo not given) : Y
CC(CNC1CCCCC1)OC(=O)c1ccccc1 (stereo not given) : N
CNC(=O)c1ccc2cc([C@@]3(O)CCn4cncc43)ccc2c1 : N
Cc1nc2sc(C(=O)NCc3ccncc3)c(N)c2c(C)c1Cl : N
C[C@@H]1O[C@@H](O[C@H]2[C@@H](OC(=O)[C@]34CCC(C)(C)CC3C3=CCC5[C@@]6(C)C[C@H](O)[C@H](O[C@@H]7O[C@H](CO)[C@@H](O)[C@H](O)[C@H]7O[C@@H]7OC[C@@H](O)[C@H](O)[C@H]7O)[C@@](C)(C(=O)O)C6CC[C@@]5(C)[C@]3(C)CC4)OC[C@H](O)[C@@H]2O)[C@H](O)[C@H](O)[C@H]1O[C@@H]1OC[C@@H](O)[C@H](O)[C@H]1O (stereo not given in full) : Y
CC1(C)OC2=C(C(=O)c3ccccc3C2=O)[C@H](NCc2ccccc2)[C@@H]1O : Y
O=C1c2ccccc2-[n+]2ccc3c([nH]c4ccccc43)c21 : Y
O=C1NC(Cc2ccc(O)cc2)C(=O)N2CCCC12 (stereo not given) : N
Cc1cccc(CC(=O)N2CCc3c2ccc(-c2cn(C)c4ncnc(N)c24)c3F)n1 : Y

Prompt line: Which outcome was assigned to `CN1C(=O)N[C@H](Cc2c[nH]c3c(Cl)cccc23)C1=O` in this test?
Response line: N

Prompt line: Please indicate how the test categorized CC(=O)OCC(=O)[C@@]1(O)CCC2C3CCC4=CC(=O)CC[C@]4(C)C3[C@@H](O)C[C@@]21C (stereo not given in full) .
Response line: N

Prompt line: Please indicate how the test categorized C/C(=C\CC[C@@H](C)[C@H]1CC(O)[C@@]2(C)C3CC[C@H]4C(C)(C)[C@@H](OC5OCC(O)C(O)C5OC5OC(CO)C(O)C(O)C5O)CC[C@@]45C[C@@]35CC(O)[C@]12C)C(=O)O (stereo not given in full) .
Response line: N

Prompt line: I'd appreciate the recorded outcome for `Cc1ccc(C)c(NC(=O)CNS(=O)(=O)c2ccc3[nH]c(=O)oc3c2)c1` from this test.
Response line: N

Prompt line: Test call, this compound: `O=C(Nc1ccccc1Br)N[C@@H]1CCN(c2ccc(C(F)(F)F)cn2)C1`
Response line: Y

Prompt line: What is the recorded call for this compound in the test? `Oc1cccc(Nc2ccnc3[nH]c4ccccc4c23)c1`
Response line: Y

Prompt line: For `Oc1cccc(Nc2ccnc3cc(-c4cccc(CN5CCOCC5)c4)sc23)c1` , which call appears in the assay record?
Response line: Y

* * *

Assay: Cellular viability qHTS for adrenocortical cancer (ACC) cell line SW-13 (AID 1963989);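 note: cells grown in serum-free medium with ITS supplement; % is set by controls: 0 for no effect and ±100 for the full control effect; nearly all actives have a fitted effect of over 65% in size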
Details: SW-13 ACC cells viability, CellTiter-Glo, 48 h; hits give low values
Text: PI: Naris Nilubol, MD Surgical Oncology Program, National Cancer Institute (NCI) National Institute of Health (NIH), Bethesda, Maryland Adrenocortical cancer (ACC) is a rare malignancy with poor survival outcomes and few treatment options. Currently, mitotane is the only FDA-approved therapy for ACC. […] Through a quantitative high-throughput drug screen (qHTS), we identified auranofin (AF), a thioredoxin reductase (TXNRD) inhibitor, as a promising candidate drug. […]
Inconclusive results are not listed.
READOUT: activity (max response) (%)
One number for each entry, in %.

CCN[C@@H]1C[C@H](N)[C@@H](OC2OC(CN)=CCC2N)[C@H](O)[C@H]1O[C@H]1OC[C@](C)(O)[C@H](NC)[C@H]1O (some centres undefined) : -2.24
Cc1cc(O)c(C)c(C)c1O : 6.25
COc1ccc(Oc2cc(NCCC(F)(F)F)c3ncc(-c4ccc(C(=O)NC5CC5)c(C)c4)n3n2)c(F)c1F : -17.7
CN1CC(=O)NC1=NC(=O)Nc1cccc(Cl)c1 : -5.87
C[N+]12CCC(CC1)C(OC(=O)C(O)(c1ccccc1)c1ccccc1)C2 (centres undefined) : -2.73

I would be grateful if you could provide activity (max response) for each of the following entries.
1. Nc1ccc(N)c([N+](=O)[O-])c1
2. CC(C)(C)C(=O)C(Oc1ccc(Cl)cc1)n1ccnc1 (centres undefined)
3. CCOC(=O)c1cc(=O)c2c(OCC(COc3cccc4oc(C(=O)OCC)cc(=O)c34)OC(=O)[C@@H](N)CCCCN)cccc2o1
4. O=C1c2c(O)cc(O)cc2OC(c2ccc(O)c(O)c2)C1O (centres undefined)
5. Cc1ccc(NC(=O)Nc2nnc(Sc3ncnc4cc(OCCCN5CCOCC5)ccc34)s2)cc1
6. C[C@@H]1C(=O)OC2[C@H](O)[C@]34[C@H]5C[C@@H](C(C)(C)C)[C@]36[C@@H](OC(=O)[C@@H]6O)O[C@@]4(C(=O)O5)[C@]21O (some centres undefined)

Response line:
-20.8
-11.3
4.59
-4.92
-9.58
5.05
